Provenance of the data: paper PMC12592420

Assay: LogD pH 7.4, octanol/phosphate buffer
Conditions: octanol/phosphate buffer, pH 7.4
Examples of compounds with documented logD follow.
Endpoint Name: logD

# Compound, Operator, Endpoint Result
data = [
    ("O=C(O)CCc1nc(-c2ccccc2)c(-c2ccccc2)o1", "=", 1.2),
    ("CCN(C(=O)c1cc(F)ccc1Oc1cncnc1N1CC2(CCN(C[C@H]3CC[C@H](NS(=O)(=O)CC)CC3)CC2)C1)C(C)C", "=", 1.41),
    ("C=CCn1c(=O)c2cnc(Nc3ccc(N4CCN(C)CC4)cc3)nc2n1-c1cccc(C(C)(C)O)n1", "=", 2.37),
    ("CCN(CC)Cc1cc(Nc2ccnc3cc(Cl)ccc23)ccc1O", "=", 2.9),
    ("CN(C)CCCOc1nn(Cc2ccccc2)c2ccccc12", "=", 2.25),
    ("Cc1c(C)c2c(c(C)c1O)CCC(C)(COc1ccc(CC3SC(=O)NC3=O)cc1)O2 (stereo not drawn)", "=", 4.25),
    ("CCOc1ccc(NC(C)=O)cc1", "=", 1.48),
    ("O=C(O)c1cc(-c2ccc(F)cc2F)ccc1O", "=", 0.574),
    ("CCCc1nn(C)c2c(=O)[nH]c(-c3cc(S(=O)(=O)N4CCN(C)CC4)ccc3OCC)nc12", "=", 2.74),
    ("CN(C)CCCN1c2ccccc2Sc2ccc(Cl)cc21", "=", 3.35),
    ("CC[C@@H]1[C@H](F)C(=O)N[C@@H]1COc1nccc2cc(C(N)=O)c(OC)cc12", "=", 1.98),
    ("CC(C)c1nc(CN(C)C(=O)N[C@H](C(=O)N[C@@H](Cc2ccccc2)C[C@H](O)[C@H](Cc2ccccc2)NC(=O)OCc2cncs2)C(C)C)cs1", "=", 4.05),
    ("CCN1CCN(C(=O)N[C@@H](C(=O)N[C@@H]2C(=O)N3C(C(=O)O)=C(CSc4nnnn4C)CS[C@H]23)c2ccc(O)cc2)C(=O)C1=O", "=", -2.52),
    ("COc1cc2ncnc(Nc3ccc(F)c(Cl)c3)c2cc1OCCCN1CCOCC1", "=", 3.77),
    ("COCCc1ccc(OCC(O)CNC(C)C)cc1 (stereo not drawn)", "<", -0.19),
    ("COc1ccccc1OCCNCC(O)COc1cccc2[nH]c3ccccc3c12 (stereo not drawn)", "=", 3.27),
    ("C[C@@H](c1ccc2nccn2c1)n1nnc2ncc(-c3cnn(C)c3)nc21", "=", 1.81),
    ("O=C(O)Cc1ccccc1Nc1c(Cl)cccc1Cl", "=", 1.07),
]

###

Assay: CLint in NADH-supplemented human liver microsomes
Conditions: human, human liver microsomes, pH 7.4
// reported CLint scaled at 1 µM per item
Endpoint Name: CLint scaled at 1 µM

# Compound, Endpoint Name, Endpoint Result
rows = [
    ("Cc1c(C)c2c(c(C)c1O)CCC(C)(COc1ccc(CC3SC(=O)NC3=O)cc1)O2 (stereo not shown)", "CLint scaled at 1 µM", "39.9 mL/min/kg"),
    ("COc1cc2ncnc(Nc3ccc(F)c(Cl)c3)c2cc1OCCCN1CCOCC1", "CLint scaled at 1 µM", "20.5 mL/min/kg"),
    ("CN1CCC(n2cc(Nc3nc(OC4(C)CC4)c4nc(-c5cncnc5)c(F)cc4n3)cn2)CC1", "CLint scaled at 1 µM", "23.7 mL/min/kg"),
    ("O=C(c1ccc(F)cc1)C1CCN(CCn2c(=O)[nH]c3ccccc3c2=O)CC1", "CLint scaled at 1 µM", "9.6 mL/min/kg"),
    ("C=CCn1c(=O)c2cnc(Nc3ccc(N4CCN(C)CC4)cc3)nc2n1-c1cccc(C(C)(C)O)n1", "CLint scaled at 1 µM", "33.2 mL/min/kg"),
    ("CCN(C(=O)c1cc(F)ccc1Oc1cncnc1N1CC2(CCN(C[C@H]3CC[C@H](NS(=O)(=O)CC)CC3)CC2)C1)C(C)C", "CLint scaled at 1 µM", "40.2 mL/min/kg"),
    ("CCOc1ccc(NC(C)=O)cc1", "CLint scaled at 1 µM", "5.66 mL/min/kg"),
]
